Measured on: T1, Full length recombinant HBcAg (rHBcAg) encompassing residues 1-183 (hepatitis B virus, UniProt P03146 1-183)
T1 construct: range 1-183; also called hepatitis B virus core antigen
Protocol details: EIA, support-bound peptide, HBcAg 10 ug/ml
So basically, if OD comes in under 1 OD it's True, and if it's 1 OD or more it's False.

| Binder | Classification |
| --- | --- |
| YNMNWVKQSHGKSLEWIGNI (also called Peptide # 27) [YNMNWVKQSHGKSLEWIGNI (SEQ. ID. No. 30)] | True |
| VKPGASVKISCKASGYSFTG (also called Peptide # 25) [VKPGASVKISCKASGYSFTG (SEQ. ID. No. 28)] | True |
| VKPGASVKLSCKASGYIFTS (also called Peptide # 2; Pept. #2) [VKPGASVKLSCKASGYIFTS (SEQ. ID. No. 5)] | False |
| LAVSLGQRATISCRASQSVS [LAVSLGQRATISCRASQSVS (SEQ. ID. No. 16)] | True |
| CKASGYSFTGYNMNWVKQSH (also called Peptide # 26) [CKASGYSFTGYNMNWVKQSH (SEQ. ID. No. 29)] | True |
| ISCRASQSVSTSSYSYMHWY [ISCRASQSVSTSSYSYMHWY (SEQ. ID. No. 17)] | False |

This collection of values is drawn from patent US20020058247A1.
